EXPERIMENTAL PROTOCOL: NCI Yeast Anticancer Drug Screen. Data for the bub3 strain (AID 167)
MEASUREMENT PARAMETERS: S. cerevisiae bub3 mutant strain, at 50.0 µM, active compounds read high
Protocol: Growth inhibition of yeast strains with defined genetic alterations is measured as a screen for potential anti-cancer activity. Selected strains with alterations in DNA damage repair or cell cycle control were exposed to compounds and growth inhibition was measured relative to vehicle treated controls. The strain used in this assay is bub3
The panel holds about 79,000 compounds, 15% with a hit somewhere; the sample as a whole holds those more often.
Each record here notes measured growth inhibition.
Quick reminder: number only, in %, skip the unit.

stdin: Tell me the measured growth inhibition of O=C(O)c1c(Br)c(Br)c(Br)c(Br)c1C(=O)Nc1ccccc1C(F)(F)F , please.
stdout: 8.05

---

List of growth inhibition values.
EXPERIMENTAL PROTOCOL: NCI Yeast Anticancer Drug Screen. Data for the mlh1 rad18 strain (AID 175)
MEASUREMENT PARAMETERS: S. cerevisiae mlh1 rad18 strain growth inhibition; at 50.0 µM; active compounds read high
About 79,000 compounds went through this panel and 15% of them were active in at least one assay; those are over-represented in the sample as a whole.
Give just the number in %; leave the unit off.

Completed entries (count: 5):
Nc1nc(-c2ccc([N+](=O)[O-])cc2)cc(-c2cc(-c3ccc([N+](=O)[O-])cc3)nc(N)n2)n1; 6.6
CCN(CC)CCN(CC)CCN(CC)CC; -0.7
O=C1c2ccccc2C(=O)N1CN1CCC(CCCC2CCN(CN3C(=O)c4ccccc4C3=O)CC2)CC1; -44.8
O=c1nc(-c2ccccc2)scc1-c1ccccc1; -10.1
CCCCCCCC/C=C\CCCCCCCC(N)=O; -50

Alright, here's another compound for you.
stdin: What value of growth inhibition has been reported for the following compound? CC(=O)CC(=O)OC1CCCC(C)C1 (centres undefined)
stdout: -15.2

---

EXPERIMENTAL PROTOCOL: NCI Yeast Anticancer Drug Screen. Data for the sgs1 mgt1 strain (AID 161);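 note: 0% = growth of cultures given vehicle only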
MEASUREMENT PARAMETERS: S. cerevisiae sgs1 mgt1 strain, at 50.0 µM, active compounds read high
This is part of a sample that, as a whole, favours compounds with a hit. Of some 79,000 tested, about 15% had one in any assay. Calls of active or inactive are those of the source. No stated cut-off is given here; in the data, active means growth inhibition above about 70%; inactive means the rest.
Measured growth inhibition, listed per entry for reference.

Below are worked cases with known answers.
CC1CC[N-]C(N)N1.CC1CC[N-]C(N)N1.[Cl][Pd][Cl] (stereo unspecified); 6.75% (inactive)
CC(=O)OC(C(=O)N(c1ccccc1)c1ccccc1)c1ccccc1 (stereo unspecified); 10.9% (inactive)
O=C(NN(C(=O)c1ccc([N+](=O)[O-])cc1)c1ccccc1)c1ccc([N+](=O)[O-])cc1; 14.1% (inactive)
CCCC(/C(C)=N/NC(N)=O)C1CCCCC1 (stereo unspecified); -2.6% (inactive)
C=C1C(=O)OC2C1C(OC(=O)/C(C)=C/C)CC(O)(CCl)C1C(O)C=C(C)C21O (stereo unspecified); 21.6% (inactive)

// next entry
stdin: Can you share its growth inhibition? I mean this molecule: c1ccc2c(c1)CCC/C2=N\OCC1CO1 (stereo unspecified)
stdout: -35.2% (inactive)

---

EXPERIMENTAL PROTOCOL: NCI Yeast Anticancer Drug Screen. Data for the sgs1 mgt1 strain (AID 161);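 note: 0% = growth of cultures given vehicle only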
MEASUREMENT PARAMETERS: S. cerevisiae sgs1 mgt1 strain, at 50.0 µM
This is part of a sample that, as a whole, favours compounds with a hit. Of some 79,000 tested, about 15% had one in any assay. Active and inactive are the calls of the source. No stated cut-off is given here; in the data, active means growth inhibition above about 70%; inactive means the rest.
Return exactly one item of 1.0 for active, 0.0 for inactive

Cc1cccc(NC(=S)NCCc2ccccn2)c1; 0.0

stdin: State the result this test recorded for O=C(NC1CCCCC1)Oc1ccc[nH]c1=O .
stdout: 0.0

stdin: # lookup: test call for O=c1ccn(-c2ccccn2)c(=O)n1-c1ccccn1
stdout: 0.0

stdin: What is the recorded call for this molecule in the test? N#C/C(=C/c1cccc(Oc2ccccc2)c1)c1ccccc1
stdout: 0.0

stdin: Returns: the outcome recorded for CN(C)CCC(c1ccccc1)C(CO)c1ccccc1 (stereo not drawn) in this assay.
stdout: 0.0
